Origin of the recorded values: patent US11952365B2

Method Summary: in vitro
Protocol Conditions: African green monkey, VeroE6 + CP (CC50), Vero E6-eGFP cells with CP-100356, absence of virus, MTS; numeric bounds
For each record, write down the corresponding CC50.

Example entries and their recorded answers appear below.
# Compound, CC50
records = [
    ("O=C(NCc1ccccc1)C(=O)C(C[C@@H]1CCNC1=O)NC(=O)[C@@H]1CC2(CC2)CN1C(=O)c1cc2ccccc2[nH]1 (stereo partly drawn)", "> 100 µM"),
    ("COc1cc(Cl)c(Cl)c2[nH]c(C(=O)N3C[C@@H]4CCC[C@@H]4[C@H]3C(=O)N[C@@H](C[C@@H]3CCNC3=O)C(=O)CO)cc12", "> 50 µM"),
    ("O=C1NCC[C@H]1C[C@H](NC(=O)[C@@H]1[C@H]2CCC[C@H]2CN1C(=O)c1cc2c(OC(F)F)cccc2[nH]1)C(=O)CO", "> 100 µM"),
]

Batch lookup, CC50 per entry.
1. COc1cccc2[nH]c(C(=O)N3C[C@@H]4CCC[C@@H]4[C@H]3C(=O)NC(CN3CCCC3=O)C(=O)C(=O)NC3CC3)cc12 (single isomer, unassigned) [Compound 113A]
2. O=C(NC1CC1)C(=O)[C@H](C[C@@H]1CCNC1=O)NC(=O)[C@@H]1CC2(CCN1C(=O)c1cc3ccccc3s1)CC2
3. COc1cccc2[nH]c(C(=O)N3C[C@@H]4CCC[C@@H]4[C@H]3C(=O)N[C@@H](C[C@@H]3CCNC3=O)C(=O)C(=O)N(C)C)cc12

1. > 50 µM
2. > 50 µM
3. > 50 µM

====

Please go through the items and note down their IC50.
Measurement Target: UniProt:P03303
Method Summary: HRV3C protease assay (duplex, SAMDI-MS)
Assay type: biochemical, HRV
Protocol Conditions: HRV3C, 30 mins preincubation, class symbols; read-out: HRV IC50
Experimental: Protease assays were performed in 384-well low volume polypropylene microtiter plates at ambient temperature. […] Internal standard peptides were added in 20 mM Hepes pH 8.0 for quantitation of the protease products. […] SAMDI-MS was performed using reflector-positive mode on an AB Sciex TOF-TOF 5800 System (AB Sciex, Framingham, MA) with 400 shots/spot analyzed in a random raster sampling. […] Assay robustness was determined by Z-Factor. […]

Consider the reported IC50 for these compounds:
# Compound, IC50
records = [
    ("O=C(NCc1ccccc1)C(=O)C(C[C@@H]1CCNC1=O)NC(=O)[C@@H]1CC2(CC2)CN1C(=O)c1cc2ccccc2[nH]1 (stereo partly drawn)", "2 to 20 µM"),
    ("CC(C)NC(=O)C(=O)C(C[C@@H]1CCCNC1=O)NC(=O)[C@@H]1[C@H]2CCC[C@H]2CN1C(=O)c1cc2ccccc2[nH]1 (stereo partly drawn)", "0.2 to 2 µM"),
    ("O=C1NCC[C@H]1C[C@H](NC(=O)[C@@H]1[C@H]2CCC[C@H]2CN1C(=O)c1cc2c(OC3CC3)cc(Cl)cc2[nH]1)C(=O)CO", "2 to 20 µM"),
    ("O=C(NC1CC1)C(=O)[C@H](C[C@@H]1CCNC1=O)NC(=O)[C@@H]1CC2(CCN1C(=O)c1cc3c(F)cccc3[nH]1)CC2", "0.2 to 2 µM"),
    ("CC(=O)c1c[nH]c(C(=O)N2C[C@@H]3CCC[C@@H]3[C@H]2C(=O)N[C@@H](C[C@@H]2CCNC2=O)C(=O)CO)c1", "2 to 20 µM"),
    ("COc1cc(C(F)(F)F)cc2[nH]c(C(=O)N3C[C@@H]4CCC[C@@H]4[C@H]3C(=O)N[C@@H](C[C@@H]3CCNC3=O)C(=O)CO)cc12", "2 to 20 µM"),
    ("COc1cccc2[nH]c(C(=O)N3CCc4ccccc4[C@H]3C(=O)N[C@@H](C[C@@H]3CCNC3=O)C(=O)CO)cc12", "2 to 20 µM"),
    ("O=C(NC1CC1)C(=O)[C@H](C[C@@H]1CCNC1=O)NC(=O)[C@@H]1CC2(CCN1C(=O)c1cc3c(Cl)cccc3[nH]1)CC2", "0.02 to 0.2 µM"),
]

Okay, here is my list. What is IC50 for each of these?
1. O=C1NCC[C@H]1C[C@H](NC(=O)[C@@H]1[C@H]2CCC[C@H]2CN1C(=O)c1cc2c(Cl)cc(F)c(Cl)c2[nH]1)C(=O)CO
2. COc1cccc2[nH]c(C(=O)N3C[C@@H]4CCC[C@@H]4[C@H]3C(=O)N[C@@H](C[C@@H]3CCNC3=O)C(=O)C(=O)N[C@@H]3CCOC3)cc12
3. COc1cccc2[nH]c(C(=O)N3C[C@]4(C[C@H]3C(=O)N[C@@H](C[C@@H]3CCCNC3=O)C(=O)COCc3ccccc3)CC4(F)F)cc12 [Compound 47A]
4. CC[C@@H]1C[C@@H](C(=O)N[C@@H](C[C@@H]2CCNC2=O)C(=O)C(=O)NCc2ccccc2)N(C(=O)c2cc3ccccc3[nH]2)C1

1. 2 to 20 µM
2. 0.2 to 2 µM
3. 2 to 20 µM
4. 2 to 20 µM
